This section presents compounds with their documented inhibition values.
- tested.on: Testis-specific serine/threonine-protein kinase 1 (Homo sapiens)
- Sequence (whole entry): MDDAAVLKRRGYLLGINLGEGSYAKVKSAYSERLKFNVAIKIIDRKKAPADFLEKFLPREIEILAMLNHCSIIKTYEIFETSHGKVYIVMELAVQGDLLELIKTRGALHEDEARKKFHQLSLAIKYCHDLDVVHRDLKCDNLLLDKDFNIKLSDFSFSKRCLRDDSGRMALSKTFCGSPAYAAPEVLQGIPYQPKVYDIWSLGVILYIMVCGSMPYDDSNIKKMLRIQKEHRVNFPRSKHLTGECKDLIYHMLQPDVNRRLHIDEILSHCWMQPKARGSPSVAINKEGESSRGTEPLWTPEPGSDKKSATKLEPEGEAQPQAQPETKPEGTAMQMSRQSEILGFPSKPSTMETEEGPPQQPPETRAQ
- condition.description: at 0.1 µM

compound	tested.on	inhibition, %
CCn1c(-c2nonc2N)nc2c(C#CC(C)(C)O)nc(CN3CCCC3)cc21	Testis-specific serine/threonine-protein kinase 1 (Homo sapiens)	0.35
CS(=O)(=O)CCN(CC#N)Cc1ccc(-c2ccc3ncnc(Nc4ccc(OCc5cccc(F)c5)c(Cl)c4)c3c2)o1	Testis-specific serine/threonine-protein kinase 1 (Homo sapiens)	1.37
CCCN1CCC=C(c2ccc(Nc3nc(Nc4ccccc4C(N)=O)c4cc[nH]c4n3)c(C)c2)C1	Testis-specific serine/threonine-protein kinase 1 (Homo sapiens)	29.9
CC1=C(C(=O)Nc2ccc3[nH]ncc3c2)C(c2ccc3ccccc3c2)CC(=O)N1 (stereo not given)	Testis-specific serine/threonine-protein kinase 1 (Homo sapiens)	1.35
COc1ccc(-c2ccncc2)cc1C(N)=O	Testis-specific serine/threonine-protein kinase 1 (Homo sapiens)	5.12
COc1cc(C=NNc2ncnc3c2cnn3-c2ccccc2)ccc1O	Testis-specific serine/threonine-protein kinase 1 (Homo sapiens)	5.71
Cc1nn(C)c2cc(N(C)c3ccnc(Nc4cccc(S(N)(=O)=O)c4)n3)ccc12	Testis-specific serine/threonine-protein kinase 1 (Homo sapiens)	3.95
CS(=O)(=O)CCNCc1ccc(-c2ccc3ncnc(Nc4ccc(OCc5ccccc5)c(Cl)c4)c3c2)o1	Testis-specific serine/threonine-protein kinase 1 (Homo sapiens)	2.07
NS(=O)(=O)c1cccc(-c2ccc3c(NC(=O)C4CC4)n[nH]c3c2)c1	Testis-specific serine/threonine-protein kinase 1 (Homo sapiens)	-0.2
Nc1ncnc2occ(-c3ccc(NC(=O)Nc4cc(C(F)(F)F)cc(C(F)(F)F)c4)cc3)c12	Testis-specific serine/threonine-protein kinase 1 (Homo sapiens)	-0.4
CS(=O)(=O)Nc1ccc(N/C=C2\C(=O)Nc3ccccc32)cc1	Testis-specific serine/threonine-protein kinase 1 (Homo sapiens)	0.15
Cc1cccc(-c2n[nH]cc2-c2ccc3ncccc3n2)n1	Testis-specific serine/threonine-protein kinase 1 (Homo sapiens)	0.8
NCc1ccc(-c2nc(-c3ccc(Cl)c(O)c3)c(-c3ccncc3)[nH]2)cc1	Testis-specific serine/threonine-protein kinase 1 (Homo sapiens)	0.52
O=C(Nc1n[nH]c2nc(-c3ccco3)c(Br)cc12)C1CC1	Testis-specific serine/threonine-protein kinase 1 (Homo sapiens)	4.63
NS(=O)(=O)c1ccc(N/N=C2\C(=O)Nc3ccc(C(=O)NCCc4c[nH]cn4)cc32)cc1	Testis-specific serine/threonine-protein kinase 1 (Homo sapiens)	6.64
COC(=O)Nc1nc2cc(Oc3ccc(NC(=O)Nc4cccc(C(=O)O)c4)cc3)ccc2[nH]1	Testis-specific serine/threonine-protein kinase 1 (Homo sapiens)	0.41
Nc1ncnc2occ(-c3ccc(NC(=O)Nc4cccc(C(F)(F)F)c4)cc3)c12	Testis-specific serine/threonine-protein kinase 1 (Homo sapiens)	4.54
COc1cc2ncn(-c3cc(OCc4ccccc4Cl)c(C(N)=O)s3)c2cc1OC	Testis-specific serine/threonine-protein kinase 1 (Homo sapiens)	1.82
CS(=O)(=O)CCNCc1ccc(-c2ccc3ncnc(Nc4ccc(OCc5cccc(F)c5)c(C(F)(F)F)c4)c3c2)o1	Testis-specific serine/threonine-protein kinase 1 (Homo sapiens)	4.81
O=C1Nc2ccc(C(=O)c3ccco3)cc2C1=Cc1cc(Cl)c(O)c(Cl)c1	Testis-specific serine/threonine-protein kinase 1 (Homo sapiens)	1.18

----------
- tested.on: Non-receptor tyrosine-protein kinase TNK1 (Homo sapiens) (UniProt Q13470)
- Sequence (Q13470 whole entry): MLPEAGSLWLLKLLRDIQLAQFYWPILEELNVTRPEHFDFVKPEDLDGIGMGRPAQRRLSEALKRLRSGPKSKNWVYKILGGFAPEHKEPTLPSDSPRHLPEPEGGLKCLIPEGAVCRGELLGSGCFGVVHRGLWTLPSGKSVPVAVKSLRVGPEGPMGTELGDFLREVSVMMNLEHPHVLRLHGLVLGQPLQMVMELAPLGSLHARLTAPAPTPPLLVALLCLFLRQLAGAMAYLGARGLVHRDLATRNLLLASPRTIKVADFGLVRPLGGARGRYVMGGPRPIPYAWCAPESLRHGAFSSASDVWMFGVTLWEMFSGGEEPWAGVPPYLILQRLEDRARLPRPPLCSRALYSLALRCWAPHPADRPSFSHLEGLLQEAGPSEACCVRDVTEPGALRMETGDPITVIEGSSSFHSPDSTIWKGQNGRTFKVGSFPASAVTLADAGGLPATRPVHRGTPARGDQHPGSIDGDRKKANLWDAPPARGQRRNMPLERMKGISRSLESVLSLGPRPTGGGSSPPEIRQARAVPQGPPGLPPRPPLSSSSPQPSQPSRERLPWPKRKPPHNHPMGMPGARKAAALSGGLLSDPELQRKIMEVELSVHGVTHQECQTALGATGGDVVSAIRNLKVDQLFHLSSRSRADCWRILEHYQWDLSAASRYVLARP
- condition.description: at 1 µM
This section presents molecules with their documented inhibition values.

smiles	tested.on	inhibition, %
NS(=O)(=O)c1cccc(-c2ccc3c(NC(=O)C4CC4)n[nH]c3c2)c1	Non-receptor tyrosine-protein kinase TNK1 (Homo sapiens) (UniProt Q13470)	2.91
Cc1ccc(NC(=O)c2ccnc(N3CCCC3)c2)cc1-c1ccc(C(=O)NCC2CC2)cc1	Non-receptor tyrosine-protein kinase TNK1 (Homo sapiens) (UniProt Q13470)	-2.64
Nc1ncnc2occ(-c3ccc(NC(=O)Nc4cccc(C(F)(F)F)c4)cc3)c12	Non-receptor tyrosine-protein kinase TNK1 (Homo sapiens) (UniProt Q13470)	52.8
Cc1ccc(C(=O)NC2CCCCC2)cc1-c1ccc(C(=O)NCC2CC2)cc1	Non-receptor tyrosine-protein kinase TNK1 (Homo sapiens) (UniProt Q13470)	-2.52
COc1cc2c(cc1Nc1nc(N3CCc4ccccc43)c3cc[nH]c3n1)N(C(=O)CN(C)C)CC2	Non-receptor tyrosine-protein kinase TNK1 (Homo sapiens) (UniProt Q13470)	12

----------
- tested.on: Calcium/calmodulin-dependent protein kinase type 1D (Homo sapiens) (UniProt Q8IU85)
- Sequence (Q8IU85 whole entry, looked up): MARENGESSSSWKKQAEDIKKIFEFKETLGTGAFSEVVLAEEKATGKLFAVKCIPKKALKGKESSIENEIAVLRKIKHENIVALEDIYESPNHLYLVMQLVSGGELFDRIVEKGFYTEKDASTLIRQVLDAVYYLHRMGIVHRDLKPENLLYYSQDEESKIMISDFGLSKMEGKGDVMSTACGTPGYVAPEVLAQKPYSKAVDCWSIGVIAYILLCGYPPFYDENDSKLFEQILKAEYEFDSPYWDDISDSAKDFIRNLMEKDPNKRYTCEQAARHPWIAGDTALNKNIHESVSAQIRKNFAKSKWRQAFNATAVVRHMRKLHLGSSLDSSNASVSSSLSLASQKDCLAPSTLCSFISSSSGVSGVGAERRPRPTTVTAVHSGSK
- condition.description: at 0.1 µM
This section presents compounds with their documented inhibition values.
value.kind: inhibition (%)

compound	units.label	numeric.result
COc1ccccc1Nc1ncc(-c2ccccc2)o1	%	-0.11
CCn1c(-c2nonc2N)nc2c(N3CCCC3)nccc21	%	-0.31
CS(=O)(=O)CCN(CC#N)Cc1ccc(-c2ccc3ncnc(Nc4ccc(OCc5cccc(F)c5)c(Cl)c4)c3c2)o1	%	-1.29
O=C1Nc2ccc(C(=O)c3ccco3)cc2C1=Cc1cc(Cl)c(O)c(Cl)c1	%	-0.26
COC(=O)Nc1nc2cc(Oc3ccc(NC(=O)Nc4cccc(C(=O)O)c4)cc3)ccc2[nH]1	%	0.59
CS(=O)(=O)CCNCc1ccc(-c2ccc3ncnc(Nc4ccc(OCc5cccc(F)c5)c(C(F)(F)F)c4)c3c2)o1	%	-0.13
CC(=O)Nc1cccc(C#Cc2cncnc2Nc2ccc(OCc3cccc(F)c3)c(Cl)c2)n1	%	0.41
COc1cc2ncn(-c3cc(OCc4ccccc4C(F)(F)F)c(C(N)=O)s3)c2cc1OC	%	-0.86
CS(=O)(=O)CCNCc1nc(-c2ccc3ncnc(Nc4ccc(F)c(Cl)c4)c3c2)cs1	%	1.26
Fc1cccc(COc2ccc(Nc3ncnc4sc(-c5cccs5)cc34)cc2Cl)c1	%	-1.31
CN1CCC(C(=O)Nc2n[nH]c3nnc(-c4ccccc4)cc23)CC1	%	0.42
NC(=O)c1cccc(Nc2nccc(Nc3cccc4[nH]ncc34)n2)c1	%	0.34
COc1ccc2cc(-c3c(-c4ccncc4)nc(-c4ccc([S+](C)[O-])cc4)n3C)ccc2c1 (stereo not drawn)	%	-0.09
COc1cc2ncn(-c3cc(O[C@@H](C)c4ccccc4Cl)c(C(N)=O)s3)c2cc1OC	%	1.43
NS(=O)(=O)c1ccc(N/N=C2\C(=O)Nc3ccc(C(=O)NCCc4c[nH]cn4)cc32)cc1	%	1.24
Cn1cc(C=C2C(=O)Nc3cccnc32)c2ccccc21	%	0.99
[O-][S+]1CCN(Cc2ccc(-c3ccc4ncnc(Nc5ccc(OCc6ccccc6)c(F)c5)c4c3)o2)CC1	%	-0.91
Cc1ccc(NC(=O)c2ccnc(N3CCCC3)c2)cc1-c1ccc(C(=O)NCC2CC2)cc1	%	0.91
COc1ccc(-c2nn3ncccc3c2-c2ccnc(Nc3ccc(Cl)c(C(F)(F)F)c3)n2)cc1	%	-0.51
Nc1nc(-c2ccccn2)c(-c2ccc3ncccc3n2)s1	%	-0.97
Nc1ncnc2occ(-c3ccc(NC(=O)Nc4cccc(C(F)(F)F)c4)cc3)c12	%	0.29
CC1=C(C(=O)Nc2ccc3[nH]ncc3c2)C(c2ccc(F)cc2)NC(=O)N1 (stereo not drawn)	%	0.49
COc1cc(C=NNc2ncnc3c2cnn3-c2ccccc2)ccc1O	%	0.83
CCn1c(-c2nonc2N)nc2c(C#CC(C)(C)O)nc(CN3CCCC3)cc21	%	1.23
Cc1nn(C)c2cc(N(C)c3ccnc(Nc4cccc(S(N)(=O)=O)c4)n3)ccc12	%	0.85
COc1ccc(COc2ccc(Cc3cnc(N)nc3N)cc2OC)cc1	%	3.83
CNC(=O)c1cncc(/C=C/c2c(Cl)cccc2Cl)c1	%	-0.35
CN(C)c1cc2c(Nc3ccc4nc(Cc5ccccc5)[nH]c4c3)ncnc2cn1	%	1.13
O=C1NC(=O)C(c2ccccc2Cl)=C1Nc1cccc(O)c1	%	1.44
Nc1ncnc2occ(-c3ccc(NC(=O)Nc4cc(C(F)(F)F)cc(C(F)(F)F)c4)cc3)c12	%	1.67
NCc1ccc(-c2nc(-c3ccc(Cl)c(O)c3)c(-c3ccncc3)[nH]2)cc1	%	0.15
CS(=O)(=O)Nc1ccc(N/C=C2\C(=O)Nc3ccccc32)cc1	%	-1.16
c1cnn2ncc(-c3ccnc(Nc4ccc5c(c4)OCCO5)n3)c2c1	%	1.5
O=C1NC(=O)C(N2CCc3ccccc32)=C1c1ccc(Cl)cc1	%	0.76
Cc1nnc(-c2ccc(C)c(-c3ccc(C(=O)Nc4cccc(C#N)c4)cc3)c2)o1	%	0.65
COc1cc2ncn(-c3cc(OCc4ccccc4Cl)c(C(N)=O)s3)c2cc1OC	%	0.78
Nc1nc(-c2ccc3c(c2)C(=Cc2cc(Br)c(O)c(Br)c2)C(=O)N3)cs1	%	0.31
Cc1cc(O)cc(C)c1/C=C/c1cncc(-c2nn[nH]n2)c1	%	0.18
